biological target: CDK6 (Homo sapiens); construct: purchased Carna Company; experiment: CDK enzymology experiment in vitro, capillary mobility shift assay (MSA); format: biochemical; settings: read-out: CDK6 (nM) inhibitory IC50
In this section we review reported IC50 values for a set of compounds.

Some solved cases for reference:
| compound | IC50 |
| --- | --- |
| CN(C)C1CCN(c2ccc(S(=O)(=O)N3CCC(Nc4ncc(C(F)(F)F)c(O[C@H]5CCOC5)n4)CC3)cc2)CC1 | 0.5 to 2.5 nM |
| Cn1cc(S(=O)(=O)N2CCC(Nc3ncc(C(F)(F)F)c(NC4CCCC4)n3)CC2)cn1 | 10 to 50 nM |
| O=S(=O)(c1ccc(C2=CCNCC2)c(F)c1)N1CCC(Nc2ncc(C(F)(F)F)c(O[C@H]3CCOC3)n2)CC1 | 0.5 to 2.5 nM |

# input for lookup
The recorded IC50 for Cn1cc(-c2ccc(S(=O)(=O)N3CCC(Nc4ncc(C#N)c(N[C@H]5CC[C@@H](O)C5)n4)CC3)cc2)cn1 (relative stereo) [Compound 62] is 0.5 to 2.5 nM

====

target: CDK6 (Homo sapiens, UniProt Q00534); construct: purchased Carna Company; test: CDK enzymology experiment in vitro, capillary mobility shift assay (MSA); type: biochemical; conditions: read-out: CDK6 (nM) inhibitory IC50
Sequence (Q00534 whole entry): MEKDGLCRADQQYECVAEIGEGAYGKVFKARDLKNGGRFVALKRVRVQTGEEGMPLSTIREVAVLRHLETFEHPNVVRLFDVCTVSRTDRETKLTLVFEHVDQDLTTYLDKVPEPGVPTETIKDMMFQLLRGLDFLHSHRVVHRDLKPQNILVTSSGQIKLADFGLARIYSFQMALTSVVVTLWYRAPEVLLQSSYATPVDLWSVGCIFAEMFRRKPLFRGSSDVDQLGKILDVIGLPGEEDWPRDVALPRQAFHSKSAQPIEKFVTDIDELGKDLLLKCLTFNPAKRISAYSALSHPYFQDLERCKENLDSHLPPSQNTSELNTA
Sequence (P30281 whole entry partner): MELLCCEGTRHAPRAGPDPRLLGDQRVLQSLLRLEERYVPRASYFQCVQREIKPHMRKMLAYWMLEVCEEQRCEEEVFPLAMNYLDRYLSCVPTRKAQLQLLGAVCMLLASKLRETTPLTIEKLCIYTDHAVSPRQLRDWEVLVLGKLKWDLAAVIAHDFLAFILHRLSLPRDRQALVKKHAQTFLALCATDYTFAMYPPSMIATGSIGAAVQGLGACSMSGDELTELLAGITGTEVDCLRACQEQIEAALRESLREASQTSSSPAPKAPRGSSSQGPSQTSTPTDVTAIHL
measured-parameter: IC50

Reference set (6 entries):
| compound | IC50 |
| --- | --- |
| C[C@H]1CNCCN1c1ccc(S(=O)(=O)N2CCC(Nc3ncc(C(F)(F)F)c(O[C@H]4CCOC4)n3)CC2)cc1 [Compound 198] | 0.5 to 2.5 nM |
| O=S(=O)(c1ccc(C2=CCNC2)cc1)N1CCC(Nc2ncc(C(F)(F)F)c(O[C@H]3CCOC3)n2)CC1 [Compound 146] | 0.5 to 2.5 nM |
| CN(C)CCn1cc(S(=O)(=O)N2CCC(Nc3ncc(C(F)(F)F)c(O[C@H]4CCOC4)n3)CC2)cn1 [Compound 157] | 10 to 50 nM |
| CS(=O)(=O)N1CCC(Nc2ncc(C#N)c(NC3CCCC3)n2)CC1 [Example 1] | 10 to 50 nM |
| O=S(=O)(c1ccc(N2CC3CNCC3C2)cc1)N1CCC(Nc2ncc(C(F)(F)F)c(O[C@H]3CCOC3)n2)CC1 (some centres unmarked) [Compound 191] | 0.5 to 2.5 nM |
| O=S(=O)(c1ccc(C2=CCNCC2)cn1)N1CCC(Nc2ncc(C(F)(F)F)c(O[C@H]3CCOC3)n2)CC1 [Compound 176] | 0.5 to 2.5 nM |

Entry under test: O=S(=O)(c1ccc(C2=CCNCC2)cc1)N1CCC(Nc2ncc(C(F)(F)F)c(O[C@H]3CCOC3)n2)CC1 [Example 100] . Its IC50 was 0.5 to 2.5 nM

In plain terms, C[C@H]1CN(c2ccc(S(=O)(=O)N3CCC(Nc4ncc(C(F)(F)F)c(O[C@H]5CCOC5)n4)CC3)cc2)C[C@H](C)N1 [Example 168] has a documented IC50 of < 0.5 nM

====

Target: CDK6 (Homo sapiens, UniProt Q00534)
Construct: purchased Carna Company
Assay: CDK enzymology experiment in vitro, capillary mobility shift assay (MSA)
Assay type: biochemical
Description: CDK1/CDK2/CDK4/CDK6/CDK7/CDK9 were purchased from Carna Company; Carliper substrate CTD3/substrate 18/substrate 8 were purchased from Gil Biochemical Company; Dinaciclib/Palbociclib were purchased from Selleckchem Company; DMSO was purchased from Sigma Company; 384-well plates were purchased from Corning Company. […]
measured-parameter: IC50

Value of measured IC50 for the entry `O=S(=O)(c1ccc(N2CC3CCC(C2)N3)cc1)N1CCC(Nc2ncc(C(F)(F)F)c(O[C@H]3CCOC3)n2)CC1` : 0.5 to 2.5 nM

====

Known IC50 of a selection of compounds
target: CDK2 (Homo sapiens); construct: purchased Carna Company; assay: CDK enzymology experiment in vitro, capillary mobility shift assay (MSA); assay type: biochemical; conditions: read-out: CDK2 (nM) inhibitory IC50

For orientation, consider the following solved cases.
| compound | IC50 |
| --- | --- |
| O=S(=O)([C@@H]1CCCNC1)N1CCC(Nc2ncc(C(F)(F)F)c(NC3CCCC3)n2)CC1 | 2.5 to 10 nM |
| Cn1cc(S(=O)(=O)N2CCC(Nc3ncc(C#N)c(NC4CCC(F)(F)C4)n3)CC2)cn1 (stereo not drawn) | 2.5 to 10 nM |
| Cn1cc(S(=O)(=O)N2CCC(Nc3ncc(C#N)c(O[C@@H]4CCC[C@H]4O)n3)CC2)cn1 (single isomer, unassigned) [Compound 67] | 2.5 to 10 nM |
| Cc1nnc(-c2ccc(S(=O)(=O)N3CCC(Nc4ncc(C(F)(F)F)c(O[C@H]5CCOC5)n4)CC3)cc2)o1 | < 0.5 nM |
| N#Cc1cnc(NC2CCN(S(=O)(=O)c3ccccn3)CC2)nc1NC1CCCC1 | 2.5 to 10 nM |
| O=S(=O)(c1ccc(C2=CCNCC2)c(F)c1)N1CCC(Nc2ncc(C(F)(F)F)c(O[C@H]3CCOC3)n2)CC1 | < 0.5 nM |

According to the records, this compound Cn1cc(S(=O)(=O)N2CCC(Nc3ncc(C#N)c(O[C@H]4CC[C@@H](O)C4)n3)CC2)cn1 (relative stereo) displays IC50 of 0.5 to 2.5 nM

For this compound ( `N#Cc1cnc(NC2CCN(S(=O)(=O)c3ccc(C4=CCNCC4)cc3)CC2)nc1N[C@H]1CCOC1` ), measured IC50 is 2.5 to 10 nM

Lookup result for `O=S(=O)(c1ccc(N2CC3CCC(C2)N3)cc1)N1CCC(Nc2ncc(C(F)(F)F)c(O[C@H]3CCOC3)n2)CC1` ; measured IC50: < 0.5 nM

Input O=S(=O)(c1ccc(C2CCNCC2)cc1)N1CCC(Nc2ncc(C(F)(F)F)c(NC3CCCC3(F)F)n2)CC1 (stereo not drawn) . Output IC50: 0.5 to 2.5 nM

Per the record, `CN1CCN(c2ccc(S(=O)(=O)N3CCC(Nc4ncc(C#N)c(NC5CCCC5)n4)CC3)cc2)CC1` has IC50 of 0.5 to 2.5 nM

Form field IC50, entry `C[C@H]1COCCN1c1nc(NC2CCN(S(=O)(=O)c3cnn(C)c3)CC2)ncc1C#N` : 10 to 50 nM

Short answer for `O=S(=O)(c1ccc(N2CC[C@@H](O)C2)cc1)N1CCC(Nc2ncc(C(F)(F)F)c(O[C@H]3CCOC3)n2)CC1` : IC50 was 0.5 to 2.5 nM

Value of measured IC50 for the entry `O=S(=O)(c1ccc(C2=CCNC2)cc1)N1CCC(Nc2ncc(C(F)(F)F)c(O[C@H]3CCOC3)n2)CC1` : < 0.5 nM

compound `Cn1cc(S(=O)(=O)N2CCC(Nc3ncc(C(F)(F)F)c(OC4CCCC4)n3)CC2)cn1` , IC50 observed: 0.5 to 2.5 nM

====

target: CDK4 (Homo sapiens, UniProt P11802); construct: purchased Carna Company; experiment: CDK enzymology experiment in vitro, capillary mobility shift assay (MSA); format: biochemical; settings: read-out: CDK4 (nM) inhibitory IC50
Sequence (P11802 whole entry): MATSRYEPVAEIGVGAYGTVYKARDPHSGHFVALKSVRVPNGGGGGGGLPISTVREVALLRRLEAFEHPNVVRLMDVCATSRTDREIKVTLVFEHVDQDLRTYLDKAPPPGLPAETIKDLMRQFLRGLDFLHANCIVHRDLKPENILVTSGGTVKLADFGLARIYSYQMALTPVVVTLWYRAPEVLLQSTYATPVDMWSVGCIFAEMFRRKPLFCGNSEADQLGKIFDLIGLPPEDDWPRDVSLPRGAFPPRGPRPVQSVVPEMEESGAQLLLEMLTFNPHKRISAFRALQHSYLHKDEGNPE
Sequence (P30281 whole entry partner): as the sequence (P30281 whole entry partner) above
Below: a set of entries, each annotated with reported IC50.

Below are worked cases with known answers.
| molecule | IC50 |
| --- | --- |
| O=S(=O)(c1cn[nH]c1)N1CCC(Nc2ncc(C(F)(F)F)c(O[C@H]3CCOC3)n2)CC1 | 2.5 to 10 nM |
| C[C@@H]1CN(c2ccc(S(=O)(=O)N3CCC(Nc4ncc(C(F)(F)F)c(O[C@H]5CCOC5)n4)CC3)cc2)C[C@@H](C)N1 | 2.5 to 10 nM |
| O=S(=O)(c1ccc(C23CCNCC2C3)cc1)N1CCC(Nc2ncc(C(F)(F)F)c(O[C@H]3CCOC3)n2)CC1 (stereo partly shown) | 0.5 to 2.5 nM |
| Cn1cc(S(=O)(=O)N2CCC(Nc3ncc(C(F)(F)F)c(O[C@@H]4COC[C@@H]4O)n3)CC2)cn1 (relative stereo) | 50 to 100 nM |
| O=S(=O)(c1ccc(C2=CCCNC2)cc1)N1CCC(Nc2ncc(C(F)(F)F)c(O[C@H]3CCOC3)n2)CC1 | 0.5 to 2.5 nM |
| C[C@@H]1CN(c2ccc(S(=O)(=O)N3CCC(Nc4ncc(C(F)(F)F)c(O[C@H]5CCOC5)n4)CC3)cc2)CCN1 | 0.5 to 2.5 nM |

We now examine a further molecule.
Please fill in: IC50 reported for `O=S(=O)(c1ccccn1)N1CCC(Nc2ncc(C(F)(F)F)c(O[C@H]3CCOC3)n2)CC1` = 10 to 50 nM

====

target: CDK2 (Homo sapiens); construct: purchased Carna Company; assay: CDK enzymology experiment in vitro, capillary mobility shift assay (MSA); assay type: biochemical; settings: read-out: CDK2 (nM) inhibitory IC50
measured-parameter: IC50

Take a look at these entries with their results.
| compound | IC50 |
| --- | --- |
| C[C@@H]1CN(c2ccc(S(=O)(=O)N3CCC(Nc4ncc(C(F)(F)F)c(O[C@H]5CCOC5)n4)CC3)cn2)C[C@@H](C)N1 [Compound 207] | 0.5 to 2.5 nM |
| Cn1cc(S(=O)(=O)N2CCC(Nc3ncc(C#N)c([S+]([O-])C4CCCC4)n3)CC2)cn1 (stereo not shown) [Compound 98] | < 0.5 nM |
| CN1CCN(Cc2ccc(S(=O)(=O)N3CCC(Nc4ncc(C#N)c(NC5CCCC5)n4)CC3)cc2)CC1 [Example 22] | 2.5 to 10 nM |
| CC(C)(O)c1ccc(S(=O)(=O)N2CCC(Nc3ncc(C#N)c(NC4CCCC4)n3)CC2)cc1 [Example 24] | 0.5 to 2.5 nM |
| O=S(=O)(c1ccc(C2CCNCC2)nc1)N1CCC(Nc2ncc(C(F)(F)F)c(O[C@H]3CCOC3)n2)CC1 [Compound 174] | < 0.5 nM |

// recorded IC50 for Cn1cc(S(=O)(=O)N2CCC(Nc3ncc(C(F)(F)F)c(NC4CCCC4)n3)CC2)cn1 [Compound 32] : 0.5 to 2.5 nM

Memo: Cn1cc(S(=O)(=O)N2CCC(Nc3ncc(C#N)c(N[C@@H]4CCC[C@@]4(C)O)n3)CC2)cn1 (single isomer, unassigned) [Example 20] , reported IC50: 10 to 50 nM
